These data points were gathered from patent US20180186897A1.

- Assayed target: erythrocytes infected with P. falciparum field isolate 9106
- Method notes: flow cytometry, staining of IEs
Assay endpoint: % parasite recognition (%)
Express the result in % but write the number alone.

Item: MGD56 (antibody) VH: QVQLQESGPGLVKPSGTLSLTCAVSGGSITTNNWWSWVRQTPGKGLEWIGEIFRSGTTNYNPSLKSRVAISLDKSKNQFSLKLTSVTAADTAVYYCATASPFKSQRDTKDLPRPSLSAEPGTVIPLGSHVTFVCRGPVGVQTFRLQRESRSLYNDTEDVSHPSPSESEARFRIDSVSEGNAGPYRCVYYKSSKWSEESDCLELLVKTEDVTWARPQPQLDPRACPRGDLRISTDVYYMDVWGKGTTVTVSS VL: AIRMTQSPSSLSASTGDRVTITCRASQAITSYLAWYRQKPGKAPDLLIYNASTLQSGVPSRFSASGSGTDFALTITGLQSEDFVIYFCQHYYTYPPAFGQGTRLEIK | % parasite recognition: 3.3
